B1: OR4K15 (parent)
chain: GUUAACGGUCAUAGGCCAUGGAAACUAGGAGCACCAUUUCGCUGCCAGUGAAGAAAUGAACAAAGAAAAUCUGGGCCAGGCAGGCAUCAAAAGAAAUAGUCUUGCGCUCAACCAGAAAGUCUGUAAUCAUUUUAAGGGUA

Variants of: B1
EXPERIMENT SUMMARY: self-cleavage, relative activity (ratio to wild type); higher = more cleavage; in vitro, sequencing; the parent is a self-cleaving ribozyme
Short version: self-cleavage at least 1 is t, less is f.

query: Check if self-cleavage >= 1 (inclusive). Item: A5G A86U
result: t

query: Check if self-cleavage >= 1 (inclusive). Item: U38C C88A
result: t

Continuing:
query: Check if self-cleavage >= 1 (inclusive). Item: C77A A89G
result: f

query: Check if self-cleavage >= 1 (inclusive). Item: A33U G48A
result: t

query: Check if self-cleavage >= 1 (inclusive). Item: U39C A110U
result: t

query: Check if self-cleavage >= 1 (inclusive). Item: U70C A117U
result: f

query: Check if self-cleavage >= 1 (inclusive). Item: C16U A69G
result: f
